System: angiotensin-converting enzyme (ACE)
assay_info: Peptide stability / cleavage by angiotensin-converting enzyme
Type: in vitro ADME, rabbit
experimental_context: relative hydrolysis ratio; peptide 30 µmol·L^−1, ACE 7.5 ng, 37 °C, 4 h
Where no end group is shown, it is not given here.
measured_property: Cleavage (%) ACE

// worked examples, Cleavage (%) ACE included
1. YVTVKGFSPLREP [δ-scoliidine]; <0.01%
2. DYVTVKGFSPLREP [ε-scoliidine]; <0.01%
3. YVTVKGFSPLR [γ-scoliidine]; <0.01%
4. DYVTVKGFSPLRKA [β-scoliidine]; <0.01%

query: Would you kindly share the measured Cleavage (%) ACE for RPPGFSPFR [bradykinin, reference compound] ?
result: 100%

---

Test system: human neprilysin (NEP)
assay_info: Peptide stability / cleavage by neprilysin
Assay type: in vitro ADME
experimental_context: relative hydrolysis ratio; peptide 30 µmol·L^−1, NEP 7.5 ng, 37 °C, 4 h
Excerpt: All chemicals used here were analytical reagent grade (purity higher than 95%) purchased from different brands. The AChE enzyme was derived from Electrophorus electricus Type VI-S, and the ACE I enzyme was derived from rabbit lung and was acquired from Sigma-Aldrich Corporation (St. Louis, MO, USA). Neprilysin and the substrates [Abz-FRK (Dnp) P-OH and Abz-RGFK (Dnp)-OH] were supplied by Prof. Adriana Carmona from the Department of Biophysics at Federal University of São Paulo (SP, Brazil). […]
Where no end group is shown, it is not given here.
measured_property: Cleavage (%) NEP

1. YVTVKGFSPLR [γ-scoliidine]; <0.01%
2. DYVTVKGFSPLREP [ε-scoliidine]; <0.01%
3. YVTVKGFSPLREP [δ-scoliidine]; <0.01%
4. RPPGFSPFR [bradykinin, reference compound]; 100%

Next up:
query: Could you share what Cleavage (%) NEP was measured for DYVTVKGFSPLRKA [β-scoliidine] , tested on human neprilysin (NEP)?
result: <0.01%
